# system.name: GABAAR-α2 loop truncation α2-351St (AA 307-350)
# Sequence (P26048 335-378 limits assumed): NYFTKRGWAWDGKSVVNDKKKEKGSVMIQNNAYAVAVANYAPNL
# procedure.summary: ITC; CB-SH3 titrated against the GABAAR α-subunit loops and truncated α2 constructs; purified proteins
assay.readout: Kd (µM)
Numeric answer only, unit µM assumed.

Form field Kd, entry SH3 domain of collybistin (CB-SH3) (domain or fragment, murine, UniProt Q3UTH8 4-72, looked up, collybistin CB1, murine, residues 4-72, encompassing the complete SH3 domain (residues 8-67); pGEX construct provided by T. Soykan (Brose lab); source: E. coli, purified (GST tag, in-situ thrombin cleavage, Superdex 200 SEC); not shown: GST, N-terminal, cleaved) LITGDSIVSAEAVWDHVTMANRELAFKAGDVIKVLDASNKDWWWGQIDDEEGWFPASFVRLWVNQEDGV : 7
